tested on: Dawley rats; test: Response to tail clamping after single i.v. bolus; type: in vivo; settings: single i.v. bolus 15 mg/kg, in 10% ethanol/16% Cremophor
experimental endpoint: # lack of response rat/tested rat

[
  {
    "compound": "COc1ccc2[nH]c(-c3ccccc3)c(CCNC(C)=O)c2c1 [drawing 25, reference compound]",
    "target of assay": "Dawley rats",
    "observed": "0/5"
  },
  {
    "compound": "COc1ccc2[nH]c(-c3ccc(C(F)(F)F)cc3)c(CCNC(C)=O)c2c1 [drawing 27]",
    "target of assay": "Dawley rats",
    "observed": "4/5"
  },
  {
    "compound": "COc1ccc2[nH]c(-c3cccc(C(F)(F)F)c3)c(CCNC(C)=O)c2c1 [drawing 28]",
    "target of assay": "Dawley rats",
    "observed": "5/5"
  },
  {
    "compound": "COc1ccc2[nH]c(-c3ccc(F)cc3)c(CCNC(C)=O)c2c1 [drawing 26]",
    "target of assay": "Dawley rats",
    "observed": "5/5"
  },
  {
    "compound": "COc1ccc2[nH]c(-c3ccc(C(C)(C)C)cc3)c(CCNC(C)=O)c2c1 [drawing 29]",
    "target of assay": "Dawley rats",
    "observed": "5/5"
  }
]

Measured values drawn from patent US7674816B2 for this set.
